Attribution: patent US10881653B2

- targetDesc: UniProt:P00390
- methodNotes: Inhibition of recombinant GR (GSSG assay)
- Assay type: biochemical
- conditions: Biological Example 4; assays of Biological Example 1
Where a name gives a salt, the structure may show the parent alone.
parameter: IC50

# annotated cases, reported IC50 shown
INSERT INTO measurements (molecule, reported) VALUES
  ('O=C1C=C[C@H]2[C@@H]3C(=O)N(Cc4ccccc4)C(=O)[C@@H]3[C@@H]1N2Cc1ccccc1 (relative stereo)', '> 100 µM'),
  ('Cc1cccc(CN2C3C=CC(=O)C2C2C(=O)N(c4ccccc4)C(=O)C23)c1F (stereo not shown)', '> 100 µM'),
  ('CC(=O)Nc1ccc(N2C(=O)[C@@H]3[C@H](C2=O)[C@H]2C(=O)C=C[C@@H]3N2Cc2cccc(C)c2)cc1 (stereo in doubt) [Example 57, Trifluoroacetate]', '> 100 µM');

Request: Need IC50, item O=C1C=CC2C3C(=O)N(c4ccccc4)C(=O)C3C1N2Cc1cc(Cl)ccc1F (stereo not shown)
Response: 31.6 µM

Request: Need IC50, item Cc1cccc(CN2[C@@H]3C(=O)C=C[C@H]2[C@@H]2C(=O)N(c4ccc(Br)cc4)C(=O)[C@@H]23)c1 (relative stereo)
Response: > 100 µM

Request: Need IC50, item Cc1ccc(F)c(CN2C3C=CC(=O)C2C2C(=O)N(c4ccccc4)C(=O)C23)c1F (stereo not shown) [Example 38]
Response: 12.3 µM

Request: Need IC50, item O=C1C=C[C@H]2C3C(=O)N(C4CCCCC4)C(=O)C3[C@@H]1N2Cc1ccccc1 (mixture of isomers)
Response: > 100 µM

Request: Need IC50, item O=C1C=C[C@H]2[C@@H]3C(=O)N(c4ccc(O)cc4)C(=O)[C@@H]3[C@@H]1N2Cc1ccccc1 (relative stereo)
Response: > 100 µM

Request: Need IC50, item CN1C(=O)C2C(C1=O)[C@@H]1C=CC(=O)[C@H]2N1Cc1ccccc1 (mixture of isomers)
Response: > 100 µM

----------
- targetDesc: gluthathione reductase (GR) (Homo sapiens, UniProt P00390)
- Sequence (P00390 44-522): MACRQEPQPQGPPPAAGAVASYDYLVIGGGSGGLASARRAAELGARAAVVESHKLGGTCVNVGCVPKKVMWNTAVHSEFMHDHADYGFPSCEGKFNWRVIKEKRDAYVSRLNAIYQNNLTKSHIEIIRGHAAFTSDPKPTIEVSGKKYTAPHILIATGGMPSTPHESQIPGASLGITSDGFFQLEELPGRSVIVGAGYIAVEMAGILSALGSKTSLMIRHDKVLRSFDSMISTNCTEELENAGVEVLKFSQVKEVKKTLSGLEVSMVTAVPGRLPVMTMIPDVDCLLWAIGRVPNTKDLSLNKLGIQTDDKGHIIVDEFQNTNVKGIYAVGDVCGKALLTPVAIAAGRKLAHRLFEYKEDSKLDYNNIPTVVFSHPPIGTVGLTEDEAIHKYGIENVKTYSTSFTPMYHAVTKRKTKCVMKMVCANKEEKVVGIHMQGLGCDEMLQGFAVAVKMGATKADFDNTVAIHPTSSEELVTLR
- methodNotes: Inhibition of recombinant GR (GSSG assay)
- Type: biochemical
- conditions: Biological Example 4; assays of Biological Example 1
parameter: IC50

# annotated cases, reported IC50 shown
INSERT INTO measurements (compound, reported) VALUES
  ('Cc1cccc(CN2[C@@H]3C(=O)C=C[C@H]2[C@@H]2C(=O)N(c4ccc(O)cc4)C(=O)[C@@H]23)c1 (relative stereo) [Example 55]', '> 100 µM'),
  ('CCN1C(=O)C2C(C1=O)[C@@H]1C=CC(=O)[C@H]2N1Cc1cccc(C)c1 (mixture of isomers) [Example 48]', '> 100 µM'),
  ('Cc1cccc(CN2[C@@H]3C(=O)C=C[C@H]2[C@@H]2C(=O)N(c4cccc(Br)c4)C(=O)[C@@H]23)c1 (relative stereo) [Example 62]', '> 100 µM');

Attention now shifts to the item below.
Request: Need IC50, item CN1C(=O)[C@@H]2[C@H](C1=O)[C@H]1C(=O)C=C[C@@H]2N1Cc1ccccc1 (relative stereo) [Example 51]
Response: > 100 µM

----------
We begin with a simple list: items and their reported IC50.
- targetDesc: recombinant thioredoxin reductase 1 (TrxR1) (Homo sapiens)
- Sequence (Q16881 whole entry): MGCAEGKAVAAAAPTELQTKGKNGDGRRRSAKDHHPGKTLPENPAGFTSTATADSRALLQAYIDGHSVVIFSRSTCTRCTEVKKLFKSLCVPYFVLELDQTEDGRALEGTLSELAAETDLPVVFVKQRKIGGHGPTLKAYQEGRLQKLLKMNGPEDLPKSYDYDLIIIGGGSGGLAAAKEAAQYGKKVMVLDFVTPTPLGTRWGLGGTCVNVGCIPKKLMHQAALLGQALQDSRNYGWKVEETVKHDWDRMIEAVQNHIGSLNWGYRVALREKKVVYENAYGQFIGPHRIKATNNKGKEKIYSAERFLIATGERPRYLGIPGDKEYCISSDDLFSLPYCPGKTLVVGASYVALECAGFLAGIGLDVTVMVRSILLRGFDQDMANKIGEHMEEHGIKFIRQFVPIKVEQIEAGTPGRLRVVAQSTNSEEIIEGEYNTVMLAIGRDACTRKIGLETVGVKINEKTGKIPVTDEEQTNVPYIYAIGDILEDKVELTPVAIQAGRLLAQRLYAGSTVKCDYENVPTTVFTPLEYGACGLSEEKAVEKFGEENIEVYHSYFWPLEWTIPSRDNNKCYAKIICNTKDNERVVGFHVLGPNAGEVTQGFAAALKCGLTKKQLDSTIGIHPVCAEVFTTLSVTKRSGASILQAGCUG
- methodNotes: Inhibition of recombinant TrxR1 (DTNB assay)
- Assay type: biochemical
- conditions: Biological Example 4; assays of Biological Example 1; read-out: TrxR Inhibition
Counter-ions that a name gives are not always drawn.
Just the number please, in µM, no unit attached.

# annotated cases, reported IC50 shown
INSERT INTO results (molecule, reported) VALUES
  ('Cc1cccc(CN2[C@@H]3C(=O)C=C[C@H]2[C@@H]2C(=O)N(c4c(C)cccc4C)C(=O)[C@@H]23)c1 (relative stereo) [Example 65]', 5.3),
  ('O=C1C=C[C@H]2[C@@H]3C(=O)N(c4ccccc4)C(=O)[C@@H]3[C@@H]1N2Cc1ccc(F)cc1Cl (relative stereo) [Example 18]', 0.94),
  ('O=C1C=C[C@H]2[C@@H]3C(=O)N(c4ccccc4)C(=O)[C@@H]3[C@@H]1N2Cc1cccc(F)c1 (relative stereo) [Example 29]', 1.07),
  ('O=C1C=CC2C3C(=O)N(c4ccccc4)C(=O)C3C1N2Cc1cc(Cl)ccc1F (centres unmarked) [Example 40]', 0.77),
  ('O=C1C=C[C@H]2[C@@H]3C(=O)N(c4ccccc4)C(=O)[C@@H]3[C@@H]1N2Cc1ccccc1 (relative stereo) [Example 1]', 2.19),
  ('Cc1cccc(CN2C3C=CC(=O)C2C2C(=O)N(c4ccccc4)C(=O)C23)c1F (centres unmarked) [Example 35]', 1.06),
  ('O=C1C=CC2C3C(=O)N(c4ccccc4)C(=O)C3C1N2Cc1cccc(Cl)c1 (centres unmarked) [Example 42]', 0.76),
  ('O=C1C=CC2C3C(=O)N(c4ccccc4)C(=O)C3C1N2Cc1ccc(Br)cc1 (centres unmarked) [Example 6, Trifluoroacetate]', 0.57);

Request: Need IC50, item CCN1C(=O)[C@@H]2[C@H](C1=O)[C@H]1C(=O)C=C[C@@H]2N1C (relative stereo) [Example 61]
Response: 23.4

Request: Need IC50, item O=C1C=CC2C3C(=O)N(c4ccccc4)C(=O)C3C1N2Cc1cccc(F)c1F (centres unmarked) [Example 31]
Response: 1.06

Request: Need IC50, item O=C1C=CC2C3C(=O)N(c4ccccc4)C(=O)C3C1N2Cc1cccc(Br)c1 (centres unmarked) [Example 34]
Response: 1.23

Request: Need IC50, item Cc1cccc(CN2[C@@H]3C(=O)C=C[C@H]2[C@@H]2C(=O)N(c4ccc(Br)cc4)C(=O)[C@@H]23)c1 (relative stereo) [Example 66]
Response: 1.43

Request: Need IC50, item O=C1C=C[C@H]2C3C(=O)N(c4ccccc4)C(=O)C3[C@@H]1N2Cc1cc(F)ccc1F (mixture of isomers) [Example 26]
Response: 2.5

Request: Need IC50, item O=C1C=CC2C3C(=O)N(c4ccccc4)C(=O)C3C1N2Cc1cccc(C(F)(F)F)c1 (centres unmarked) [Example 32]
Response: 1.44

Request: Need IC50, item O=C1C=C[C@H]2[C@@H]3C(=O)N(c4ccccc4)C(=O)[C@@H]3[C@@H]1N2CCc1ccccc1 (relative stereo) [Example 7]
Response: 1.97
